molecular target: Alpha amylase (Homo sapiens, UniProt P0DUB6); experiment: Inhibition of alpha-amylase (unknown origin) assessed as reduction in conversion of starch to glucose preincubated for 10 mins followed by substrate addition and measured after 20 mins by DNSA reagent based spectrophotometric analysis
Sequence (P0DUB6 whole entry): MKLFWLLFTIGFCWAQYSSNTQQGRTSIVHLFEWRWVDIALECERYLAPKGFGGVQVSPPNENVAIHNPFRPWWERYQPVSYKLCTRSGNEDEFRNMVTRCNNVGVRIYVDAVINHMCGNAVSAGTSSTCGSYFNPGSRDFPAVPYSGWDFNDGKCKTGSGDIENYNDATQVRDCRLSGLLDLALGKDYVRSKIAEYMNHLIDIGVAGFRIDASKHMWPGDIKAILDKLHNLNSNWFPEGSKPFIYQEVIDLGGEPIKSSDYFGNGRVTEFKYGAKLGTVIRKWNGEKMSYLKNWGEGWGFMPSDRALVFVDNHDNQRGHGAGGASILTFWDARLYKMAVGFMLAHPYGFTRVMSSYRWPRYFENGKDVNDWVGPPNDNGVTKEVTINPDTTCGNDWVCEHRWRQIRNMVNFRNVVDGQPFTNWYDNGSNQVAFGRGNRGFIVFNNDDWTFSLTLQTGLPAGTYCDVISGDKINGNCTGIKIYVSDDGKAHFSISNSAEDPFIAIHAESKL
Readout label: IC50 (mg/mL)

> print(dat)
                               mol                               system.name  observed.value
1  CCn1nc(Cn2nnc(-c3ccccn3)n2)cc1C  Alpha amylase (Homo sapiens, UniProt P0DUB6)            0.54

(A) CCn1nc(Cn2nnc(Cc3ccccc3)n2)cc1C
(B) Cc1cc(Cn2nnc(Cc3ccccc3)n2)n[nH]1
Could you tell me which of A and B has the lower IC50 reading? State your choice using its label.
A
(A: 2.36 mg/mL, B: 5.59 mg/mL)

(a) Cc1cc(Cn2nnc(-c3ccccn3)n2)n[nH]1
(b) Cc1cc(Cn2nnnc2Cc2ccccc2)n[nH]1
Which value of IC50 is greater, the one for a or the one for b ? State your choice using its label.
b
